Each item that follows carries a reported Flow-through K.
Biological target: T1, BMP-12 (UniProt Q7Z4P5 322-450, limits assumed)
T1 construct: also called BMP12/GDF7
T1 sequence (looked up): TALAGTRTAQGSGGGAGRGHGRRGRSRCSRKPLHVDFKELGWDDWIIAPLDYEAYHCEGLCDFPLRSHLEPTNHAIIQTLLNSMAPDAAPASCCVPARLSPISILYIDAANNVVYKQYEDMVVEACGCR
Test: peptide resin, filter plate; load 12: 50 mM Tris, 0.1 M NaCl, 20% MPD, pH 8.0
No end group written: not given here.
parameter: Flow-through K

• Ac-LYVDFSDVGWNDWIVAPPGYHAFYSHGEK [BMP2 Full peptide 747] = 0
• Ac-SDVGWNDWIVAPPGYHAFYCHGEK [BMP2 N-trun peptide 750] = 1
• Ac-VAPPGYHAFYSHGEK [BMP2 N-trunc_2 peptide 745] = 0
• Ac-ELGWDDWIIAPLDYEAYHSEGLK [BMP12 N-trun_1S peptide 749] = 1
• Ac-LYVSDVGWNDWIVK (not fully specified (residue 3); printed as Ac-LYV**SDVGWNDWIVK; also: ** after V3 not explained) [BMP2 C-trunc_2 peptide 746] = 0
• Ac-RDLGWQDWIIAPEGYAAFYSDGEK [BMP5 peptide 748] = 1
• Ac-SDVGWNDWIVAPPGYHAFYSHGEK [BMP2 N-trun 1S peptide 751] = 1
